test: Metabolic stability of the compound in CD-1 mouse liver microsomes assessed as parent compound remaining at 5 uM preincubated for 5 mins followed by NADPH addition and measured after 30 mins by LC-TOF/MS analysis; format: ADME, Microsome; details: time 35 min, read-out: Stability
// assign label 1 if remaining at 0.5 h, 5 µM falls strictly below 20%, else label 0 (ties count as label 0)

Record excerpt, results attached:
Clc1cccc(-c2nc(Nc3ccncc3)c3ccccc3n2)n1 | label 1
Cc1cccc(-c2nc(Nc3ccc4nnn(C)c4c3)c3ccccc3n2)n1 | label 1
Cc1cccc(-c2nc(Nc3ccc4nn(C)nc4c3)c3ccccc3n2)n1 | label 0
Fc1cccc(-c2nc(Nc3ccncc3)c3ccccc3n2)n1 | label 1
COc1ccc2c(Nc3ccncc3)nc(-c3cccc(C)n3)nc2c1 | label 1

With those in mind, consider the next molecule.
Answer whether the molecule FC(F)(F)c1cccc(-c2nc(Nc3ccncc3)c3ccccc3n2)n1 has remaining at 0.5 h, 5 µM strictly less than 20%
label 0
